# Test system: Heterodera zeae
# experimental-details: Nematicidal activity against Heterodera zeae infective stage larvae assessed as nematode mortality at 0.5% under light conditions measured 24 hr post dose by stereoscopic microscopy
# Type: functional
Entry flag: 1.0 if mortality reaches 60%; 0.0 if it does not.

>>> assigned_class("O=C(O)c1ccccc1")
0.0
>>> assigned_class("O=C(O)c1ccc(O)cc1")
0.0
>>> assigned_class("CCCCCCCC/C=C\\CCCCCCCC(=O)O")
0.0
>>> assigned_class("COC(=O)c1ccc(O)c(O)c1 [METHYL PROTOCATECHUATE]")
1.0
>>> assigned_class("O=C(O)c1cc(O)c(O)c(O)c1")
1.0
>>> assigned_class("C[C@@H]1O[C@@H](OC[C@H]2O[C@@H](Oc3c(-c4ccc(O)c(O)c4)oc4cc(O)cc(O)c4c3=O)[C@H](O)[C@@H](O)[C@@H]2O)[C@H](O)[C@H](O)[C@H]1O")
1.0
>>> assigned_class("CNC(=O)Oc1cccc2c1OC(C)(C)C2")
1.0
>>> assigned_class("COc1c(O[C@@H]2O[C@H](CO)[C@@H](O)[C@H](O)[C@H]2O)cc2oc(-c3ccc(O)c(O)c3)c(O)c(=O)c2c1O")
0.0

---

# Tested on: Heterodera zeae
# experimental-details: Nematicidal activity against Heterodera zeae infective stage larvae assessed as nematode mortality at 0.125% under dark conditions measured 72 hr post dose by stereoscopic microscopy
# Assay type: functional
observable: mortality (%)

>>> numeric_result("COc1c(O[C@@H]2O[C@H](CO)[C@@H](O)[C@H](O)[C@H]2O)cc2oc(-c3ccc(O)c(O)c3)c(O)c(=O)c2c1O [PATULITRIN]")
10
>>> numeric_result("C[C@@H]1O[C@@H](OC[C@H]2O[C@@H](Oc3c(-c4ccc(O)c(O)c4)oc4cc(O)cc(O)c4c3=O)[C@H](O)[C@@H](O)[C@@H]2O)[C@H](O)[C@H](O)[C@H]1O [RUTIN]")
70
>>> numeric_result("O=C(O)c1ccccc1 [BENZOIC ACID]")
0
>>> numeric_result("COc1c(O)cc2oc(-c3ccc(O)c(O)c3)c(O)c(=O)c2c1O [PATULETIN]")
0
>>> numeric_result("CCCCCCCC/C=C\\CCCCCCCC(=O)O [OLEIC ACID]")
10
>>> numeric_result("CCCCCCCCCCCCCCCC(=O)O [PALMITIC ACID]")
50
>>> numeric_result("COc1ccc(C(=O)O)cc1 [p-ANISIC ACID]")
50
>>> numeric_result("CCCCCCCCCCCCCCCCO [CETYL ALCOHOL]")
40
>>> numeric_result("CCCCCCCC/C=C\\CCCCCCCC(=O)OC [METHYL OLEATE]")
10

---

# Test system: Heterodera zeae
# experimental-details: Nematicidal activity against Heterodera zeae infective stage larvae assessed as nematode mortality at 0.5% under light conditions measured 5 to 60 min post dose by stereoscopic microscopy
# Format: functional, organism-based
Activity calls are given as the source filed them. The calls are words filed in the database; no cut-off is given here.
observable: Activity

>>> result("COc1cc(C(=O)O)cc(OC)c1OC")
"inactive"
>>> result("O=c1c(O)c(-c2ccc(O)c(O)c2)oc2cc(O)cc(O)c12")
"inactive"
>>> result("CCCCCCCCCCCCCC(=O)O")
"inactive"
>>> result("O=C(O)c1ccc(O)cc1")
"inactive"
>>> result("COc1c(O[C@@H]2O[C@H](CO)[C@@H](O)[C@H](O)[C@H]2O)cc2oc(-c3ccc(O)c(O)c3)c(O)c(=O)c2c1O")
"inactive"

---

mortality reference
# Tested on: Heterodera zeae
# experimental-details: Nematicidal activity against Heterodera zeae infective stage larvae assessed as nematode mortality at 0.25% under light conditions measured 48 hr post dose by stereoscopic microscopy
# Type: functional
observable: mortality

>>> result("O=c1c(O)c(-c2ccc(O)c(O)c2)oc2cc(O)cc(O)c12")
"50%"
>>> result("O=C(O)c1ccccc1")
"0%"
>>> result("COc1ccc(C(=O)O)cc1OC")
"50%"
>>> result("CCCCCCCC/C=C\\CCCCCCCC(=O)OC [METHYL OLEATE]")
"50%"
>>> result("O=C(O)c1ccc(O)c(O)c1")
"100%"
>>> result("CCCCCCCCCCCCCC(=O)O")
"20%"
>>> result("CCCCCCCCCCCCCCCCCC(=O)O")
"70%"
>>> result("COc1cc(C(=O)O)cc(OC)c1OC")
"100%"
>>> result("O=C(O)c1ccc(O)cc1")
"40%"
>>> result("CCCCCCCCCCCCCCCCO")
"50%"
>>> result("CCCCCCCC/C=C\\CCCCCCCC(=O)O")
"50%"
>>> result("C[C@@H]1O[C@@H](OC[C@H]2O[C@@H](Oc3c(-c4ccc(O)c(O)c4)oc4cc(O)cc(O)c4c3=O)[C@H](O)[C@@H](O)[C@@H]2O)[C@H](O)[C@H](O)[C@H]1O")
"100%"
>>> result("CNC(=O)Oc1cccc2c1OC(C)(C)C2")
"100%"
>>> result("COc1c(O[C@@H]2O[C@H](CO)[C@@H](O)[C@H](O)[C@H]2O)cc2oc(-c3ccc(O)c(O)c3)c(O)c(=O)c2c1O")
"20%"
>>> result("COc1c(O)cc2oc(-c3ccc(O)c(O)c3)c(O)c(=O)c2c1O")
"70%"
>>> result("COc1ccc(C(=O)O)cc1")
"20%"
>>> result("CCCCCCCCCCCCCCCC(=O)O")
"10%"
>>> result("COC(=O)c1ccc(O)c(O)c1 [METHYL PROTOCATECHUATE]")
"100%"

---

# Tested on: Heterodera zeae
# experimental-details: Nematicidal activity against Heterodera zeae infective stage larvae assessed as nematode mortality at 1% under light conditions measured 24 hr post dose by stereoscopic microscopy
# Format: functional
mortality reference
observable: mortality (%)

>>> numeric_result("CCCCCCCC/C=C\\CCCCCCCC(=O)OC [METHYL OLEATE]")
50
>>> numeric_result("COc1ccc(C(=O)O)cc1 [p-ANISIC ACID]")
40
>>> numeric_result("COc1ccc(C(=O)O)cc1OC [VERATRIC ACID]")
80
>>> numeric_result("O=C(O)c1ccc(O)cc1 [PARABEN]")
0
>>> numeric_result("COc1c(O)cc2oc(-c3ccc(O)c(O)c3)c(O)c(=O)c2c1O [PATULETIN]")
40
>>> numeric_result("O=C(O)c1ccccc1 [BENZOIC ACID]")
0
>>> numeric_result("O=C(O)c1cc(O)c(O)c(O)c1 [GALLIC ACID]")
100
>>> numeric_result("CCCCCCCCCCCCCCCCCC(=O)O [STEARIC ACID]")
100
>>> numeric_result("CCCCCCCCCCCCCC(=O)O [MYRISTIC ACID]")
40
>>> numeric_result("CCCCCCCC/C=C\\CCCCCCCC(=O)O [OLEIC ACID]")
50
>>> numeric_result("c1csc(-c2ccc(-c3cccs3)s2)c1 [ALPHA-TERTHIENYL]")
100
>>> numeric_result("COc1cc(C(=O)O)cc(OC)c1OC [3,4,5-TRIMETHOXYBENZOIC ACID]")
100
>>> numeric_result("C[C@@H]1O[C@@H](OC[C@H]2O[C@@H](Oc3c(-c4ccc(O)c(O)c4)oc4cc(O)cc(O)c4c3=O)[C@H](O)[C@@H](O)[C@@H]2O)[C@H](O)[C@H](O)[C@H]1O [RUTIN]")
100
>>> numeric_result("O=C(O)c1ccc(O)c(O)c1 [PROTOCATECHUIC ACID]")
100
>>> numeric_result("CNC(=O)Oc1cccc2c1OC(C)(C)C2 [CARBOFURAN]")
100
>>> numeric_result("CCCCCCCCCCCCCCCCO [CETYL ALCOHOL]")
70
>>> numeric_result("O=c1c(O)c(-c2ccc(O)c(O)c2)oc2cc(O)cc(O)c12 [QUERCETIN]")
50
>>> numeric_result("COc1c(O[C@@H]2O[C@H](CO)[C@@H](O)[C@H](O)[C@H]2O)cc2oc(-c3ccc(O)c(O)c3)c(O)c(=O)c2c1O [PATULITRIN]")
0
>>> numeric_result("CCCCCCCCCCCCCCCC(=O)O [PALMITIC ACID]")
0
>>> numeric_result("COC(=O)c1ccc(O)c(O)c1 [METHYL PROTOCATECHUATE]")
100
>>> numeric_result("CCCCC/C=C\\C/C=C\\CCCCCCCC(=O)O [LINOLEIC ACID]")
100

---

# Tested on: Heterodera zeae
# experimental-details: Nematicidal activity against Heterodera zeae infective stage larvae assessed as nematode mortality at 0.25% under dark conditions measured 48 hr post dose by stereoscopic microscopy
# Type: functional
mortality reference
observable: mortality (%)

>>> numeric_result("CNC(=O)Oc1cccc2c1OC(C)(C)C2")
100
>>> numeric_result("COc1ccc(C(=O)O)cc1OC")
40
>>> numeric_result("CCCCCCCCCCCCCC(=O)O")
30
>>> numeric_result("O=c1c(O)c(-c2ccc(O)c(O)c2)oc2cc(O)cc(O)c12")
50
